Here is a set of compounds with reported IC50 for UniProt:P04626, compiled from the literature.

Ask: Provide IC50, tested on UniProt:P04626, for COc1cc(Nc2ncnc(Nc3cccc(CN4CCN(C)CC4)c3)n2)cc(OC)c1OC .
Result: > 9.67 µM

Ask: Provide IC50, tested on UniProt:P04626, for O=C(Nc1ccc(Br)cc1)Nc1ncnc2nn3ccccc3c12 .
Result: > 10 µM

Ask: Provide IC50, tested on UniProt:P04626, for CC(=O)N1CCN(c2ccc(Nc3nccc(-c4sc(C(C)C)nc4-c4cccc(NS(=O)(=O)c5cccc(C(F)(F)F)c5)c4)n3)cn2)CC1 .
Result: > 1 µM

Ask: Provide IC50, tested on UniProt:P04626, for COC(=O)c1cc(OC)c(OC)cc1Nc1ncnc(-n2c(N)nc3ccccc32)n1 .
Result: 5.7 to 8.31 µM

Ask: Provide IC50, tested on UniProt:P04626, for CC(C)c1nc(-c2cccc(NS(=O)(=O)c3c(F)cccc3F)c2F)c(-c2ccnc(Nc3ccc(N4CCOCC4)nc3)n2)s1 .
Result: > 1 µM

Ask: Provide IC50, tested on UniProt:P04626, for CN(c1ccc2c(cnn2Cc2ccccc2)c1)c1ncnc(Nc2cccc(Cn3ccnn3)c2)n1 .
Result: < 0.819 µM

Ask: Provide IC50, tested on UniProt:P04626, for COC(=O)c1ccc(-c2cc(Nc3ncnc(Nc4cccc(C(N)=O)c4)n3)[nH]n2)cc1 .
Result: > 10.5 µM

Ask: Provide IC50, tested on UniProt:P04626, for CC(C)c1nc(-c2ccnc(NS(=O)(=O)c3c(F)cccc3F)c2)c(-c2ccnc(Nc3cnc(N4CCOCC4)c(F)c3)n2)s1 .
Result: > 1 µM

----------
Here is a set of compounds with reported pIC50 for Receptor tyrosine-protein kinase erbB-2 (Homo sapiens, UniProt P04626), compiled from the literature.
pIC50: −log10 of the molar value.

Ask: Provide pIC50, tested on Receptor tyrosine-protein kinase erbB-2 (Homo sapiens, UniProt P04626), for Cc1cc(Nc2ncnn3ccc(CN4CCCNCC4)c23)ccc1Oc1ccn2ncnc2c1 .
Result: 7.80

Ask: Provide pIC50, tested on Receptor tyrosine-protein kinase erbB-2 (Homo sapiens, UniProt P04626), for COc1ccc(S(C)(=O)=O)cc1Nc1nccc(-c2sc(C(C)C)nc2-c2cccc(NS(=O)(=O)c3c(F)cccc3F)n2)n1 .
Result: > 7.00

Ask: Provide pIC50, tested on Receptor tyrosine-protein kinase erbB-2 (Homo sapiens, UniProt P04626), for COc1cc(Nc2ncnc(Nc3cccc(C)c3)n2)cc(OC)c1OC .
Result: 5.18 to 5.96

Ask: Provide pIC50, tested on Receptor tyrosine-protein kinase erbB-2 (Homo sapiens, UniProt P04626), for COc1cc(Nc2ncnc(-n3ccc4ccccc43)n2)cc(OC)c1OC .
Result: < 4.92

Ask: Provide pIC50, tested on Receptor tyrosine-protein kinase erbB-2 (Homo sapiens, UniProt P04626), for CCN1CCN(Cc2ccc(Nc3nccc(-c4c[nH]nc4-c4ccc(C)cc4)n3)cc2)CC1 .
Result: 7.55

Ask: Provide pIC50, tested on Receptor tyrosine-protein kinase erbB-2 (Homo sapiens, UniProt P04626), for Clc1cccc(Nc2ncnc(Nc3cc(-c4ccccc4)n[nH]3)n2)c1 .
Result: < 4.91

Ask: Provide pIC50, tested on Receptor tyrosine-protein kinase erbB-2 (Homo sapiens, UniProt P04626), for CN(C)C/C=C/C(=O)N1CCOc2c1ccc1ncnc(Nc3ccc(OCc4cccc(F)c4)c(Cl)c3)c21 .
Result: ≥ 7.30

Ask: Provide pIC50, tested on Receptor tyrosine-protein kinase erbB-2 (Homo sapiens, UniProt P04626), for CCO/N=C/c1c(N)ncnc1Nc1ccc2c(cnn2Cc2ccc(F)cc2)c1 .
Result: 6.70

Ask: Provide pIC50, tested on Receptor tyrosine-protein kinase erbB-2 (Homo sapiens, UniProt P04626), for CC(C)c1nc(-c2cccc(NS(=O)(=O)c3ccccc3)c2)c(-c2ccnc(Nc3ccc(CC4CCN(CCS(C)(=O)=O)CC4)c(F)c3)n2)s1 .
Result: < 6.00

Ask: Provide pIC50, tested on Receptor tyrosine-protein kinase erbB-2 (Homo sapiens, UniProt P04626), for CCO/N=C/c1c(N)ncnc1Nc1ccc2nn(Cc3ccccc3)cc2c1 .
Result: 5.35

Ask: Provide pIC50, tested on Receptor tyrosine-protein kinase erbB-2 (Homo sapiens, UniProt P04626), for COc1ccc(Nc2nccc(-c3sc(C(C)C)nc3-c3cccc(NS(=O)(=O)Cc4ccccc4)c3)n2)cc1N1CCN(CCS(C)(=O)=O)CC1 .
Result: > 7.00

Ask: Provide pIC50, tested on Receptor tyrosine-protein kinase erbB-2 (Homo sapiens, UniProt P04626), for COc1cc(Nc2ncnc(Nc3ccc(Cl)c4ccccc34)n2)cc(OC)c1OC .
Result: 5.26 to 6.04

Ask: Provide pIC50, tested on Receptor tyrosine-protein kinase erbB-2 (Homo sapiens, UniProt P04626), for COC(=O)c1cccc(Nc2ncnc(-n3c(NCc4ccccc4)nc4ccccc43)n2)c1 .
Result: 5.27 to 6.05

Ask: Provide pIC50, tested on Receptor tyrosine-protein kinase erbB-2 (Homo sapiens, UniProt P04626), for c1coc(-c2cc(Nc3ncnc(Nc4ccc(-c5csnn5)cc4)n3)n[nH]2)c1 .
Result: > 6.00

Ask: Provide pIC50, tested on Receptor tyrosine-protein kinase erbB-2 (Homo sapiens, UniProt P04626), for c1ccc(CCNc2ncnc(Nc3ccc4c(cnn4Cc4ccccc4)c3)n2)cc1 .
Result: 5.08 to 5.24

Ask: Provide pIC50, tested on Receptor tyrosine-protein kinase erbB-2 (Homo sapiens, UniProt P04626), for Cc1cccc(Nc2ncnc(Nc3ccc4[nH]ncc4c3)n2)c1 .
Result: 5.12 to 5.90

Ask: Provide pIC50, tested on Receptor tyrosine-protein kinase erbB-2 (Homo sapiens, UniProt P04626), for COc1cc(Nc2ncnc(-n3c(NCc4ccc5c(c4)OCO5)nc4ccccc43)n2)cc(OC)c1OC .
Result: 5.34 to 6.12

Ask: Provide pIC50, tested on Receptor tyrosine-protein kinase erbB-2 (Homo sapiens, UniProt P04626), for CN1CCN(CC(=O)NCc2ccc(-c3cc4c(Nc5ccc(OCc6ccccc6)cc5)ncnc4[nH]3)cc2)CC1 .
Result: 7.85

Ask: Provide pIC50, tested on Receptor tyrosine-protein kinase erbB-2 (Homo sapiens, UniProt P04626), for COc1cccc(Nc2ncnc(N(C)c3cccc(Cl)c3)n2)c1 .
Result: 5.15 to 5.93

Ask: Provide pIC50, tested on Receptor tyrosine-protein kinase erbB-2 (Homo sapiens, UniProt P04626), for CCNc1nc(-c2cc(OC)cc(OC)c2)c(-c2ccnc(Nc3cc(F)c(N4CCN(CCS(C)(=O)=O)CC4)c(F)c3)n2)o1 .
Result: < 6.00

Ask: Provide pIC50, tested on Receptor tyrosine-protein kinase erbB-2 (Homo sapiens, UniProt P04626), for Cc1nc(Cl)sc1S(=O)(=O)Nc1cccc(-c2nc(C(C)C)sc2-c2ccnc(Nc3ccc(N4CCOCC4)nc3)n2)c1 .
Result: < 6.00

Ask: Provide pIC50, tested on Receptor tyrosine-protein kinase erbB-2 (Homo sapiens, UniProt P04626), for c1ccc(CNc2nc3ccccc3n2-c2ncnc(Nc3cccc(Cc4nnn[nH]4)c3)n2)cc1 .
Result: > 6.08

Ask: Provide pIC50, tested on Receptor tyrosine-protein kinase erbB-2 (Homo sapiens, UniProt P04626), for CC#CC(=O)N1CCC[C@H]1c1nc(-c2ccc(C(=O)Nc3cc(C(F)(F)F)ccn3)c(OC)c2)c2c(N)nccn12 .
Result: < 6.00

----------
Here is a set of compounds with reported IC50 for Receptor tyrosine-protein kinase erbB-2 (Homo sapiens, UniProt P04626), compiled from the literature.

Ask: Provide IC50, tested on Receptor tyrosine-protein kinase erbB-2 (Homo sapiens, UniProt P04626), for Cc1cccc(Nc2ncnc(N(C)c3cccc(Br)c3)n2)c1 .
Result: 1.08 to 6.48 µM

Ask: Provide IC50, tested on Receptor tyrosine-protein kinase erbB-2 (Homo sapiens, UniProt P04626), for COc1ccc(CNc2ncnc(Nc3cc(-c4ccco4)n[nH]3)n2)cc1 .
Result: > 12.4 µM

Ask: Provide IC50, tested on Receptor tyrosine-protein kinase erbB-2 (Homo sapiens, UniProt P04626), for COc1cc2c(Nc3ccc(Cl)c(Cl)c3)ncnc2cc1OCc1nc(-c2ccccn2)cs1 .
Result: < 0.05 µM

Ask: Provide IC50, tested on Receptor tyrosine-protein kinase erbB-2 (Homo sapiens, UniProt P04626), for COC(=O)c1ccc(-c2cc(Nc3ncnc(NCc4cccnc4)n3)[nH]n2)cc1 .
Result: 8.7 to 11.2 µM

Ask: Provide IC50, tested on Receptor tyrosine-protein kinase erbB-2 (Homo sapiens, UniProt P04626), for Cc1ccc2c(c1)CCCN2c1ncnc(Nc2cccc(Cc3nnn[nH]3)c2)n1 .
Result: < 1 µM

Ask: Provide IC50, tested on Receptor tyrosine-protein kinase erbB-2 (Homo sapiens, UniProt P04626), for Cc1ccc2c(c1)CCCN2c1ncnc(NCc2ccccn2)n1 .
Result: > 13.5 µM

Ask: Provide IC50, tested on Receptor tyrosine-protein kinase erbB-2 (Homo sapiens, UniProt P04626), for O=C(O)C(CO)NCc1ccc(-c2ccc3ncnc(Nc4ccc(OCc5cccc(F)c5)c(Cl)c4)c3c2)o1 (stereo not shown) .
Result: < 10 µM

Ask: Provide IC50, tested on Receptor tyrosine-protein kinase erbB-2 (Homo sapiens, UniProt P04626), for CN(C)C/C=C/C(=O)N1CCOc2c1ccc1ncnc(Nc3ccc(OCc4cccc(C(F)(F)F)c4)cc3)c21 .
Result: ≤ 0.05 µM

Ask: Provide IC50, tested on Receptor tyrosine-protein kinase erbB-2 (Homo sapiens, UniProt P04626), for COc1cc2c(Nc3ccc(Cl)c(Cl)c3)ncnc2cc1OCc1csc(N2CCOCC2)n1 .
Result: < 0.05 µM

Ask: Provide IC50, tested on Receptor tyrosine-protein kinase erbB-2 (Homo sapiens, UniProt P04626), for C=CCNC(=O)c1ccc(-c2cc(Nc3ncnc(Nc4cc(OC)c(OC)c(OC)c4)n3)[nH]n2)cc1 .
Result: > 8.95 µM
